Each recorded value in this set is attributed to patent US9546158B2.

Let's look at some compounds and their measured melting point.

[
  {
    "compound": "Cc1nn(-c2ncc(-c3cc([S+](C)[O-])ccc3F)cn2)c2cc(C(=O)N(C)CC(N)=O)ccc12 (stereo not shown)",
    "melting point": "164 to 168 °C"
  },
  {
    "compound": "C[S+]([O-])c1ccc(F)c(-c2cnc(-n3nc(C4CC4)c4ccc(C(=O)N5CCOCC5)cc43)nc2)c1 (stereo not shown)",
    "melting point": "243 to 247 °C"
  },
  {
    "compound": "Cc1nn(-c2ncc(-c3cc(C(C)(C)O)ccc3F)cn2)c2cc(C(=O)N(C)CC(N)=O)ccc12",
    "melting point": "187 to 190 °C"
  },
  {
    "compound": "CCOc1ccc(F)c(-c2cnc(-n3nc(C)c4ccc(C(=O)N(C)CC(N)=O)cc43)nc2)c1",
    "melting point": "254 to 257 °C"
  },
  {
    "compound": "CC(C)(O)c1ccc(F)c(-c2cnc(-n3nc(C4CC4)c4ccc(C(=O)N5CCOCC5)cc43)nc2)c1",
    "melting point": "211 to 215 °C"
  }
]

compound `O=C1CN(C(=O)c2ccc3c(C4CC4)nn(-c4ncc(-c5ccccc5)cn4)c3c2)CCN1` , melting point observed: 175 to 179 °C

The recorded melting point for `O=C1CN(C(=O)c2ccc3c(C4CC4)nn(-c4ncc(-c5ccccc5F)cn4)c3c2)CCN1` is 252 to 255 °C
